Value source: ChEMBL document CHEMBL5346955

- protocolSummary: Volume of distribution at steady state in Beagle dog at 1 mg/kg, iv measured after 5 mins by LC-MS/MS analysis
- Format: ADME, organism-based, Canis lupus familiaris
- particulars: in vivo, read-out: Vdss
measuredMetric: Vd
Dear colleague, please send the value followed by its unit.

# input compound: COc1cc(C(=O)O)cc2sc(N3CCN(Cc4c(-c5c(Cl)cccc5Cl)noc4C4CC4)C[C@H]3C)nc12 ; wanted: its Vd 0.823 L/kg

* * *

- targetOrSystem: Bile acid receptor (Homo sapiens)
- protocolSummary: Agonist activity at human GAL4-FXR-LBD expressed in HEK293T cells assessed as transcriptional activity measured after 16 to 20 hrs by luciferase reporter gene assay
- Type: cell-based
pEC50: −log10 of the molar value.
Given measured pEC50, output 1 (yes) if it is greater than or equal to 7 and 0 (no) if not.

| compound | group |
| --- | --- |
| CC(C)c1onc(-c2c(Cl)cccc2Cl)c1CN1CCN(c2nc3ccc(C(=O)O)cc3s2)CC1 | 0 (no) |
| CC(C)c1onc(-c2c(Cl)cccc2Cl)c1CN1CCN(c2cc3cc(C(=O)O)ccc3s2)CC1 | 0 (no) |
| COc1cc(C(=O)O)cc2sc(N3CCC(Cc4c(-c5c(Cl)cccc5Cl)noc4C(C)C)CC3)nc12 | 0 (no) |
| COc1cc(C(=O)O)cc2sc(N3CCN(Cc4c(-c5c(Cl)cccc5Cl)noc4C4CC4)CC3C)nc12 (stereo not drawn) | 1 (yes) |

# ---- query compound ----
In plain terms: is recorded pEC50 at least 7 for COc1cc(C(=O)O)cc2sc(C3CCN(Cc4c(-c5c(Cl)cccc5Cl)noc4C(C)C)CC3)nc12 ? 0 (no)

* * *

- protocolSummary: Half life in Beagle dog at 3 mg/kg, po measured after 12 hrs by LC-MS/MS analysis
- Type: ADME, organism-based, Canis lupus familiaris
- particulars: in vivo
measuredMetric: half-life

# input compound: COc1cc(C(=O)O)cc2sc(N3CCN(Cc4c(-c5c(Cl)cccc5Cl)noc4C4CC4)C[C@H]3C)nc12 ; wanted: its half-life 9.9 h

* * *

- protocolSummary: Volume of distribution at steady state in Balb/c mouse at 1 mg/kg, iv measured after 5 mins by LC-MS/MS analysis
- Assay type: ADME, organism-based
- particulars: in vivo, read-out: Vdss
measuredMetric: Vd (L/kg)
One number for each entry, in L/kg.

# input compound: COc1cc(C(=O)O)cc2sc(N3CCN(Cc4c(-c5c(Cl)cccc5Cl)noc4C4CC4)C[C@H]3C)nc12 ; wanted: its Vd 0.53

* * *

- protocolSummary: Cmax in Beagle dog at 3 mg/kg, po measured after 12 hrs by LC-MS/MS analysis
- Type: ADME, organism-based, Canis lupus familiaris
- Design: time 12 hrs, dose 3 mg/kg, route po
- particulars: in vivo
measuredMetric: Cmax (ng/mL)
Give bare numbers, in ng/mL.

# input compound: COc1cc(C(=O)O)cc2sc(N3CCN(Cc4c(-c5c(Cl)cccc5Cl)noc4C4CC4)C[C@H]3C)nc12 ; wanted: its Cmax 1710

* * *

Please respond with reported pEC50 for every item in the list.
- targetOrSystem: Bile acid receptor (Homo sapiens, UniProt Q96RI1)
- protocolSummary: Agonist activity at human GAL4-FXR-LBD expressed in HEK293T cells assessed as transcriptional activity measured after 16 to 20 hrs by luciferase reporter gene assay
- Assay type: cell-based
Give bare numbers, as −log10 of the molar value.

Here is how some molecules turned out for pEC50.
| mol | pEC50 |
| --- | --- |
| C[C@@H]1CN(Cc2c(-c3c(Cl)cccc3Cl)noc2C2CC2)CCN1c1nc2c(F)cc(C(=O)O)cc2s1 | 7.41 |
| COc1cc(C(=O)O)cc2sc(N3CCN(Cc4c(-c5c(Cl)cccc5Cl)noc4C(C)C)CC34CC4)nc12 | 5.91 |
| COc1cc(C(=O)O)cc2sc(N3CCN(Cc4c(-c5c(Cl)cccc5Cl)noc4C4CC4)C[C@H]3C)nc12 | 7.74 |

Shift focus to the following entry.
# input molecule: COc1cc(C(=O)O)cc2sc(N3CCN(Cc4c(-c5c(Cl)cccc5Cl)noc4C(C)C)CC3)nc12 ; wanted: its pEC50 6.83

* * *

- protocolSummary: Half life in Beagle dog at 1 mg/kg, iv measured after 5 mins by LC-MS/MS analysis
- Type: ADME, organism-based, Canis lupus familiaris
- particulars: in vivo
measuredMetric: half-life (h)
Give bare numbers, in h.

# input compound: COc1cc(C(=O)O)cc2sc(N3CCN(Cc4c(-c5c(Cl)cccc5Cl)noc4C4CC4)C[C@H]3C)nc12 ; wanted: its half-life 4.07

* * *

- protocolSummary: Solubility of the compound in PBS buffer at pH 7.4
- Assay type: physicochemical
Please respond with reported solubility for every item in the list.
One number for each entry, in µM.

| mol | solubility / µM |
| --- | --- |
| COc1cc(C(=O)O)cc2sc(N3CCN(Cc4c(-c5c(Cl)cccc5Cl)noc4C4CC4)C[C@H]3C)nc12 | 284 |

# input molecule: C[C@@H]1CN(Cc2c(-c3c(Cl)cccc3Cl)noc2C2CC2)CCN1c1nc2c(F)cc(C(=O)O)cc2s1 ; wanted: its solubility 129

* * *

- targetOrSystem: Bile acid receptor (Homo sapiens, UniProt Q96RI1)
- Sequence (Q96RI1 whole entry): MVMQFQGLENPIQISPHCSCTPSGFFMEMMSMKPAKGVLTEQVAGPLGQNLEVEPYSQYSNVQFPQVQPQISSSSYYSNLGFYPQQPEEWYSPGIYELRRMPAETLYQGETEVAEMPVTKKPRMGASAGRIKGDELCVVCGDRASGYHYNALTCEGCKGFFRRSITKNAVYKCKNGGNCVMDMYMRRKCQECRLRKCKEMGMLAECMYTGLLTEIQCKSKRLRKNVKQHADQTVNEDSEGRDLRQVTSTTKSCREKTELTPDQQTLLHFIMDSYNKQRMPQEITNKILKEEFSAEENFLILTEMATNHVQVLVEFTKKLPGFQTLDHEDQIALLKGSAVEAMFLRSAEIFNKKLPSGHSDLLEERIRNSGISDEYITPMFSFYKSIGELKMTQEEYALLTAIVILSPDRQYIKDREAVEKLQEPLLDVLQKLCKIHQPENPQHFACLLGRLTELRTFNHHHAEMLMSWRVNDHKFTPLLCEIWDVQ
- protocolSummary: Agonist activity at human GAL4-FXR-LBD expressed in HEK293T cells assessed as transcriptional activity measured after 16 to 20 hrs by luciferase reporter gene assay
- Assay type: cell-based
measuredMetric: EC50 (nM)
Answers are plain numbers, in nM.

| molecule | EC50 (nM) |
| --- | --- |
| COc1cc(C(=O)O)cc2sc(N3CCN(Cc4c(-c5c(Cl)cccc5Cl)noc4C(C)C)CC3(C)C)nc12 | 127 |
| COc1cc(C(=O)O)cc2sc(N3CCN(Cc4c(-c5c(Cl)cccc5Cl)noc4C4CC4)C[C@@H]3C)nc12 | 124 |

# input molecule: CCC1CN(Cc2c(-c3c(Cl)cccc3Cl)noc2C(C)C)CCN1c1nc2c(OC)cc(C(=O)O)cc2s1 (stereo not drawn) ; wanted: its EC50 85
